Listing of entries alongside the reported IC50.
- Test system: MKN-45
- experiment description: Cytotoxicity against human MKN45 cells after 72 hrs by MTT assay
- Type: functional, cell-based
- condition context: MKN-45, 72 h
Just the number please, in µM, no unit attached.

Example entries and their recorded answers appear below.
INSERT INTO results (molecule, result) VALUES
  ('CCN(CC)Cc1cnc2c(C#N)c(-c3ccc(OC)c(OC)c3OC)cc(-c3ccc(F)cc3F)n12', 6.79),
  ('COc1ccc(-c2cc(-c3ccc(F)cc3F)n3c(CN4CCC(C)CC4)cnc3c2C#N)c(OC)c1OC', 1.68),
  ('COc1ccc(-c2cc(-c3ccc(F)cc3)n3c(CN4CCCC4)cnc3c2C#N)c(OC)c1OC', 5.84),
  ('COc1ccc(-c2cc(-c3ccc(F)cc3F)n3c(CN(C)C)cnc3c2C#N)c(OC)c1OC', 9.08),
  ('COc1ccc(-c2cc(-c3ccc(F)cc3)n3c(CN4CCOCC4)cnc3c2C#N)c(OC)c1OC', 10.5),
  ('N#Cc1c(-c2ccc(F)cc2F)cc(-c2c[nH]c3ccccc23)n2cc(CN3CCOCC3)nc12', 7.86),
  ('CCNCc1cnc2c(C#N)c(-c3ccc(OC)c(OC)c3OC)cc(-c3ccc(F)cc3F)n12', 3.52),
  ('CNCc1cnc2c(C#N)c(-c3ccc(OC)c(OC)c3OC)cc(-c3ccc(F)cc3)n12', 3.04),
  ('CCNCc1cnc2c(C#N)c(-c3ccc(OC)c(OC)c3OC)cc(-c3ccc(F)cc3)n12', 7.88),
  ('CC(C)NCc1cn2c(-c3c[nH]c4ccccc34)cc(-c3ccc(F)cc3F)c(C#N)c2n1', 3.34);

Observed IC50 on MKN-45 for COc1ccc(/C=C\c2cc(OC)c(OC)c(OC)c2)cc1O [COMBRETASTATIN A4] , please.
0.11

Under MKN-45: IC50 value of CNCc1cn2c(-c3c[nH]c4ccccc34)cc(-c3ccc(F)cc3F)c(C#N)c2n1 ?
18.2

Query for MKN-45: what IC50 does the record show for CCN(CC)Cc1cnc2c(C#N)c(-c3ccc(OC)c(OC)c3OC)cc(-c3ccc(F)cc3)n12 ?
23.4

Param readout = IC50; param system = MKN-45; param query = COc1ccc(-c2cc(-c3ccc(F)cc3)n3c(CN(C)C)cnc3c2C#N)c(OC)c1OC ; response: value
6.99

MKN-45 / IC50 / CCNCc1cn2c(-c3c[nH]c4ccccc34)cc(-c3ccc(F)cc3F)c(C#N)c2n1 : value?
2.77

API: value(readout= IC50, system= MKN-45, query= CCN(CC)Cc1cnc2c(C#N)c(-c3cc(OC)c(OC)c(OC)c3)cc(-c3ccc(F)cc3F)n12 )
40.6

Query for MKN-45: what IC50 does the record show for CN1CCN(Cc2cn3c(-c4c[nH]c5ccccc45)cc(-c4ccc(F)cc4F)c(C#N)c3n2)CC1 ?
2.71

Please tell me: IC50 of CNCc1cnc2c(C#N)c(-c3ccc(OC)c(OC)c3OC)cc(-c3ccc(F)cc3F)n12 , system MKN-45?
2.7

MKN-45 / IC50 / COc1ccc(-c2cc(-c3ccc(F)cc3F)n3c(CN4CCOCC4)cnc3c2C#N)c(OC)c1OC : value?
2.38

Provide the documented IC50 with MKN-45 as the system for N#Cc1c(-c2ccc(F)cc2F)cc(-c2c[nH]c3ccccc23)n2cc(CNC3CCCCC3)nc12
2.4

Hello, I am looking for reported IC50 with MKN-45 for N#Cc1c(-c2ccc(F)cc2Cl)cc(-c2c[nH]c3ccccc23)n2cc(CNC3CCCCC3)nc12 . Could you help?
3.68

Hi! What's the reported IC50 for N#Cc1c(-c2ccc(F)cc2F)cc(-c2c[nH]c3ccccc23)n2cc(CNC3CC3)nc12 on MKN-45?
3.68

API: value(readout=IC50, system=MKN-45) for record COc1cc(-c2cc(-c3ccc(F)cc3F)n3c(CN4CCCC4)cnc3c2C#N)cc(OC)c1OC
11.6

// fetch MKN-45 IC50 for COc1cc(-c2cc(-c3ccc(F)cc3F)n3c(CN(C)C)cnc3c2C#N)cc(OC)c1OC
14

----------
- Test system: A549
- experiment description: Cytotoxicity against human A549 cells after 72 hrs by MTT assay
- Type: functional, cell-based
- condition context: A549, 72 h
pIC50: −log10 of the molar value.
Given measured pIC50, output y if it is greater than or equal to 6 and n if not.

Observe how each entry below is paired with its result.
INSERT INTO measurements (smiles_record, assigned_category) VALUES
  ('COc1ccc(-c2cc(-c3ccc(F)cc3F)n3c(CN(C)C)cnc3c2C#N)c(OC)c1OC', 'n'),
  ('COc1cc(-c2cc(-c3ccc(F)cc3F)n3c(CN(C)C)cnc3c2C#N)cc(OC)c1OC', 'n'),
  ('CCN(CC)Cc1cnc2c(C#N)c(-c3cc(OC)c(OC)c(OC)c3)cc(-c3ccc(F)cc3F)n12', 'n'),
  ('CN1CCN(Cc2cn3c(-c4c[nH]c5ccccc45)cc(-c4ccc(F)cc4Cl)c(C#N)c3n2)CC1', 'n'),
  ('CC1CCN(Cc2cn3c(-c4c[nH]c5ccccc45)cc(-c4ccc(F)cc4F)c(C#N)c3n2)CC1', 'n');

Given the entry COc1ccc(-c2cc(-c3ccc(F)cc3)n3c(CN4CCN(C)CC4)cnc3c2C#N)c(OC)c1OC , answer whether its pIC50 meets or surpasses 6.
n

----------
- Test system: HT-29
- experiment description: Cytotoxicity against human HT-29 cells after 72 hrs by MTT assay
- Type: functional, cell-based
- condition context: HT-29, 72 h
attribute measured: pIC50
Please report pIC50 as the negative decimal logarithm of the molar concentration, giving only the number.

INSERT INTO measurements (smiles_record, result) VALUES
  ('CNCc1cn2c(-c3c[nH]c4ccccc34)cc(-c3ccc(F)cc3Cl)c(C#N)c2n1', 6.92),
  ('COc1ccc(-c2cc(-c3ccc(F)cc3)n3c(CN4CCOCC4)cnc3c2C#N)c(OC)c1OC', 5.99),
  ('COc1ccc(-c2cc(-c3ccc(F)cc3F)n3c(CN4CCCC4)cnc3c2C#N)c(OC)c1OC', 5.87),
  ('CCNCc1cnc2c(C#N)c(-c3ccc(OC)c(OC)c3OC)cc(-c3ccc(F)cc3)n12', 6.04),
  ('CCN(CC)Cc1cn2c(-c3c[nH]c4ccccc34)cc(-c3ccc(F)cc3F)c(C#N)c2n1', 7.70);

I'd like to know its pIC50. The compound in question is CNCc1cnc2c(C#N)c(-c3ccc(OC)c(OC)c3OC)cc(-c3ccc(F)cc3F)n12
7.15

Which pIC50 is listed for COc1ccc(-c2cc(-c3ccc(F)cc3F)n3c(CN4CCOCC4)cnc3c2C#N)c(OC)c1OC ?
6.33

For COc1cc(-c2cc(-c3ccc(F)cc3F)n3c(CN4CCCC4)cnc3c2C#N)cc(OC)c1OC , what is its reported pIC50?
6.15

Which measured pIC50 value corresponds to N#Cc1c(-c2ccc(F)cc2F)cc(-c2c[nH]c3ccccc23)n2cc(CNC3CCCCC3)nc12 ?
8.00

----------
- System: HT-29
- experiment description: Cytotoxicity against human HT-29 cells after 72 hrs by MTT assay
- Type: functional, cell-based
- condition context: HT-29, 72 h
pIC50: −log10 of the molar value.
Quick rule for you: pIC50 at 7 or higher means y, lower means n.

Please review the following examples before continuing.
INSERT INTO measurements (compound, system_under_test, assigned_category) VALUES
  ('COc1ccc(-c2cc(-c3ccc(F)cc3)n3c(CN4CCCC4)cnc3c2C#N)c(OC)c1OC', 'HT-29', 'n'),
  ('COc1ccc(-c2cc(-c3ccc(F)cc3F)n3c(CN(C)C)cnc3c2C#N)c(OC)c1OC', 'HT-29', 'n'),
  ('N#Cc1c(-c2ccc(F)cc2F)cc(-c2c[nH]c3ccccc23)n2cc(CN3CCOCC3)nc12', 'HT-29', 'n'),
  ('N#Cc1c(-c2ccc(F)cc2F)cc(-c2c[nH]c3ccccc23)n2cc(CN3CCCC3)nc12', 'HT-29', 'y'),
  ('CN(C)Cc1cn2c(-c3c[nH]c4ccccc34)cc(-c3ccc(F)cc3F)c(C#N)c2n1', 'HT-29', 'y');

Kindly determine if pIC50 recorded for COc1ccc(/C=C\c2cc(OC)c(OC)c(OC)c2)cc1O [COMBRETASTATIN A4] is above or exactly 7.
y

Is the recorded value of pIC50 equal to or greater than 7 for this compound? CCN(CC)Cc1cnc2c(C#N)c(-c3ccc(OC)c(OC)c3OC)cc(-c3ccc(F)cc3)n12
n

Is it the case that N#Cc1c(-c2ccc(F)cc2Cl)cc(-c2c[nH]c3ccccc23)n2cc(CNC3CCCCC3)nc12 has pIC50 reaching or exceeding 7?
y

pIC50 >= 7 for N#Cc1c(-c2ccc(F)cc2F)cc(-c2c[nH]c3ccccc23)n2cc(CNC3CC3)nc12 ?
y

Please check the record CNCc1cnc2c(C#N)c(-c3ccc(OC)c(OC)c3OC)cc(-c3ccc(F)cc3)n12 and state if its pIC50 is at or above 7.
n

Could you please find out whether COc1ccc(-c2cc(-c3ccc(F)cc3)n3c(CN(C)C)cnc3c2C#N)c(OC)c1OC has pIC50 that meets 7 or exceeds it?
n

Hi, just wondering whether CCNCc1cn2c(-c3c[nH]c4ccccc34)cc(-c3ccc(F)cc3F)c(C#N)c2n1 shows pIC50 of 7 or higher.
y

For this compound, is measured pIC50 7 or higher? CCN(CC)Cc1cnc2c(C#N)c(-c3cc(OC)c(OC)c(OC)c3)cc(-c3ccc(F)cc3F)n12
n
